All figures here come from patent US4735943A.

Each record here notes measured inhibition at 10 µg/mL.
System: ADP aggregation of platelets
Experiment: Depression on Blood Platelet Aggregation, ADP
Type: cell-based, Wister male rat
Conditions: in vitro, rat platelet plasma, final conc. 10 μg/ml; negative values given as "not effective"; read-out: depression Ratio to ADP
Express it in %; write the number only.

Example entries begin here.
compound	inhibition at 10 µg/mL (%)
CC[C@]12CCCN3CCc4c(n(c5ccccc45)C(=NOCCN4CCCC4)C1)[C@@H]32	-10
CCOC(=O)C1=C[C@]2(CC)CCCN3CCc4c(n1c1ccccc41)[C@@H]32 [vinpocetine, reference compound]	-0.2
CC[C@]12CCCN3CCc4c(n(c5ccccc45)C(=NOCCN4CCN(c5ccccc5OC)CC4)C1)[C@@H]32	5.5
CC[C@]12CCCN3CCc4c(n(c5ccccc45)C(=NOCCN(C)C)C1)[C@@H]32	5
CC[C@]12CCCN3CCc4c(n(c5ccccc45)C(=NO)C1)[C@@H]32 [Reference Example, (3α,16α)-eburnamenin-14(15H)-one oxime]	-1.2

We next turn to a different compound, shown below.
Determine from records and report inhibition at 10 µg/mL for CC[C@]12CCCN3CCc4c(n(c5ccccc45)C(=NOCC(O)CN4CCN(c5ccccc5OC)CC4)C1)[C@@H]32 (stereo partly drawn) 6.3

---

Tested on: erythrocyte deformability
Experiment: Acceleration on Erythrocyte Deformability (filtration-pressure method)
Assay type: in vivo, Wister male rats
Settings: rats, 10 mg/kg oral, blood 1 h after administration, 0.1% erythrocyte suspension
Each record here notes measured Reduction Rate in Filtering Pressure.
Express it in %; write the number only.

Example entries begin here.
compound	assay readout	reported
CCOC(=O)C1=C[C@]2(CC)CCCN3CCc4c(n1c1ccccc41)[C@@H]32 [vinpocetine, reference compound]	Reduction Rate in Filtering Pressure	46.3
CC[C@]12CCCN3CCc4c(n(c5ccccc45)C(=NOCCN(C)C)C1)[C@@H]32	Reduction Rate in Filtering Pressure	10.2
CC[C@]12CCCN3CCc4c(n(c5ccccc45)C(=NO)C1)[C@@H]32 [Reference Example, (3α,16α)-eburnamenin-14(15H)-one oxime]	Reduction Rate in Filtering Pressure	8.3

We next turn to a different compound, shown below.
Determine from records and report Reduction Rate in Filtering Pressure for CC[C@]12CCCN3CCc4c(n(c5ccccc45)C(=NOCC(O)CN4CCN(c5ccccc5OC)CC4)C1)[C@@H]32 (stereo partly shown) 35.1
